# procedure_text: in vitro
# reported_conditions: human, hela cells, % viability
# strict inequality: viability at 28.5 h, 10 µM < 90% yields Fulfilled, everything else yields Not fulfilled

Below are worked cases with known answers.
In [3]: df
Out[3]:
                                   compound  assigned_label
0     CN1CCC(OCCCn2ccnc2-c2ccccc2C(=O)O)CC1       Fulfilled
1  O=C(O)c1cccc(N2C(=O)C3C(C2=O)C2(c4ccccc4)C(=O)C3(c3ccccc3)C(c3ccccc3)=C2c2ccccc2)c1 (stereo not shown)       Fulfilled
2  O=C1Nc2ccccc2SC1(O)C(F)(F)F (stereo not shown)   Not fulfilled
3       CC(C)(C)SCC(=O)c1ccc2c(c1)CCC(=O)N2   Not fulfilled
4  CC(C)c1c(SCCN)[nH]c2ccccc12 [CBK017265C]   Not fulfilled
5  O=C(NCc1ccccc1Cl)N(Cc1cccc(Cl)c1)CC1CCNCC1       Fulfilled

Input: Dear reviewer, please state whether O=C(NCc1ccncc1)OCCc1ccncc1 has viability at 28.5 h, 10 µM strictly beneath 90%.
Output: Not fulfilled

Input: Dear reviewer, please state whether O=C(NCc1ccccc1)[C@@H]1Cc2[nH]cnc2CN1C(=O)C1CCCCC1 has viability at 28.5 h, 10 µM strictly beneath 90%.
Output: Not fulfilled

Input: Dear reviewer, please state whether COc1ccccc1NC(=O)c1ccc(OCC(=O)O)cc1 has viability at 28.5 h, 10 µM strictly beneath 90%.
Output: Not fulfilled

----------
# procedure_text: in vitro
# reported_conditions: human, hela cells, % viability
Attribute: viability at 28.5 h, 10 µM
Reply with just the number (in %).

Here's what some known entries look like.
>>> df
                                   compound                   parameter  assay_value
0  Cn1c(=O)[nH]c(=O)c2c1nc(CN1CCOCC1)n2Cc1c(F)cccc1Cl  viability at 28.5 h, 10 µM         90.5
1  COc1cccc(-c2coc3cc4oc(=O)c(CC(=O)O)c(C)c4cc23)c1  viability at 28.5 h, 10 µM         86.6
2  O=[N+]([O-])c1ccc2c(c1)C(O)n1nc(-c3ccncc3)nc1S2 (centres unmarked)  viability at 28.5 h, 10 µM         94.7

Input: Item COC(=O)c1cn(C(=O)c2snnc2C)nc1C(C)(C)C : provide viability at 28.5 h, 10 µM
Output: 89.2

Input: Item CC(C)NC(=O)[C@H]1CN(C(=O)c2cc[nH]n2)C[C@@H]1c1ccnc(N2CCCC2)n1 : provide viability at 28.5 h, 10 µM
Output: 89.3

----------
# procedure_text: in vitro
# reported_conditions: human, hela cells, % viability
parameter: viability at 28.5 h, 10 µM (%)
Reply with just the number (in %).

Here's what some known entries look like.
>>> print(df.to_string())
                                   molecule  u  assay_value
0  COC(=O)c1csc2c1N[C@H](C1CC3C=CC1C3)[C@@H]1CCO[C@H]21 (stereo partly drawn)  %         94.9
1  Cc1ccc(-c2ccn(C(C)C(=O)N(C)C)n2)cc1 (stereo not drawn)  %         98.4
2            Cc1nc(C)c(C(=O)Nc2c(C)noc2C)s1  %          105
3  O=C(CN1C(=O)C2CCC(c3ccccc3)CC2C1=O)Nc1cccc2ccccc12 (stereo not drawn)  %           86
4  Cc1nn(C)cc1S(=O)(=O)N1CCC(c2cccc(Cc3ccccc3Cl)n2)CC1  %         95.3
5  CN1CCN(C(=O)CNS(=O)(=O)c2cc(Br)c(Cl)s2)CC1  %           94
6  O=S(=O)(c1ccc(Cl)s1)N1CCN(c2ccccc2Cl)CC1  %           98
7  Cc1nc2c([N+](=O)[O-])c3c(c([N+](=O)[O-])c2[nH]1)Nc1nonc1N3  %          107

Input: Item Cn1nc(-c2ccccc2)cc1[C@H]1CN2CC[C@H]1C[C@@H]2CNS(C)(=O)=O : provide viability at 28.5 h, 10 µM
Output: 99.2

Input: Item COc1ccc2[nH]c(=O)c(CNc3ccc4c(c3)-c3ccccc3S(=O)(=O)N4)cc2c1 : provide viability at 28.5 h, 10 µM
Output: 84.2

Input: Item COc1cc(CN2CCN(S(=O)(=O)c3ccc(F)cc3)CC2)cc(OC)c1O [CBK264269G] : provide viability at 28.5 h, 10 µM
Output: 103

Input: Item O=S(=O)(Nc1cccc(-c2cnco2)c1)c1cc(C(F)(F)F)cc(C(F)(F)F)c1 : provide viability at 28.5 h, 10 µM
Output: 109

Input: Item COc1ccccc1C(CNC(=O)Nc1cc(C)on1)N(C)C (stereo not drawn) : provide viability at 28.5 h, 10 µM
Output: 97.8

Input: Item Cc1ccc(C(=O)Nc2ccccc2)cc1S(=O)(=O)N1CCN(C)CC1 : provide viability at 28.5 h, 10 µM
Output: 90.2

Input: Item Cc1cc(CNC(=O)Cn2nc(C)c(C)c2C)on1 : provide viability at 28.5 h, 10 µM
Output: 95.1

Input: Item O=C(c1cc(-c2ccncc2)nc2ccc(Cl)cc12)N1CCN(Cc2ccc3c(c2)OCO3)CC1 : provide viability at 28.5 h, 10 µM
Output: 85.4

Input: Item O=C(Cn1nc(C(=O)O)c2ccccc2c1=O)c1ccc(S(=O)(=O)N2CCOCC2)cc1 : provide viability at 28.5 h, 10 µM
Output: 90.2

Input: Item Nc1ccc2ccc(-c3ccc4c(c3)CCO4)nc2n1 : provide viability at 28.5 h, 10 µM
Output: 90

----------
Attribute: viability at 28.5 h, 10 µM
# procedure_text: in vitro
# reported_conditions: human, hela cells, % viability
Reply with just the number (in %).

                                   molecule  u  assay_value
0        O=C(Cn1ncc2cccn2c1=O)NCc1ccc(F)cc1  %         82.8
1       COCCCNC(=O)Cn1c(-c2cccs2)cc2cccnc21  %         87.2
2  Cc1cc(C)n(CC2CCCCN2CC(=O)NC(C)c2ccco2)n1 (centres unmarked)  %         87.9
3  COc1ccccc1CCCNC(=O)CC1CCCCN1C (centres unmarked)  %          101
4  COc1ccc(C2=NN(CN3C(=O)C(=O)c4cc(Br)ccc43)C(c3cccc([N+](=O)[O-])c3)C2)cc1 (centres unmarked)  %          119

Input: Item O=S(=O)(c1cccc2nonc12)N1CCCCCC1 : provide viability at 28.5 h, 10 µM
Output: 102

Input: Item NC1CCN(C(=O)c2cc3ccccc3[nH]2)CC1 : provide viability at 28.5 h, 10 µM
Output: 89.7

Input: Item CCOCN(C(=O)Cn1c(C(C)O)nc2ccccc21)c1c(C)cccc1CC (centres unmarked) : provide viability at 28.5 h, 10 µM
Output: 87.6

Input: Item CCCNCC(=O)N1CN(C(=O)c2ccc(C)cc2)C(C)(C)C1 [CBK089572C] : provide viability at 28.5 h, 10 µM
Output: 111

Input: Item CCNC(=O)Nc1ncc(-c2ccc(OC(F)(F)F)cc2)c2cccnc12 : provide viability at 28.5 h, 10 µM
Output: 94

Input: Item Cc1ccc(NC(=O)CSc2nc3[nH]ncc3c(=O)[nH]2)cc1 : provide viability at 28.5 h, 10 µM
Output: 93.5

Input: Item c1cc(CNc2nccnc2-c2ccsc2)ccn1 : provide viability at 28.5 h, 10 µM
Output: 103

Input: Item O=C(COc1ccc(S(=O)(=O)N2CCCCC2)cc1Cl)Nc1ccc2c(c1)OCCO2 : provide viability at 28.5 h, 10 µM
Output: 97

Input: Item C/C(=N\NC(=O)CSc1nc2ccccc2n1Cc1ccccc1)c1ccco1 : provide viability at 28.5 h, 10 µM
Output: 118

Input: Item CC(=O)N1CCc2cc(-c3cc4cc(C)ccn4c3)ccc21 : provide viability at 28.5 h, 10 µM
Output: 75.2

----------
# procedure_text: in vitro
# reported_conditions: human, hela cells, % viability
Attribute: viability at 28.5 h, 10 µM
Reply with just the number (in %).

In [3]: df
Out[3]:
                                   molecule  assay_value
0  Cc1cc(C)c(C)c(S(=O)(=O)NCCN2CCCCC2CO)c1C (stereo not drawn) [CBK307333]         90.4
1  CC(C)c1ccc(CNC(=O)C2(c3ccccc3)CCCC2)cc1 [CBK161531]         96.8

Moving on to the next molecule.
Input: Item Nc1nonc1-n1nnc(C(=O)O)c1-c1cccs1 [CBK266674] : provide viability at 28.5 h, 10 µM
Output: 99.4
